- experimental_target: T1, hVEGF-A (8-109) (human, UniProt P15692 214-315)
- T1 sequence (looked up): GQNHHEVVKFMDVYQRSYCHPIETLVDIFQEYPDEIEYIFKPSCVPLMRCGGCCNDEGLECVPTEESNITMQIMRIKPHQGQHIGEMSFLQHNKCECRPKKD
- procedure_details: spot phage ELISA
metric_name: binding result

binder="GCDVLQPYWGCGPDIDCLSNCICHWYNSCGWK (designed binder) [63.12.12.M5L.2x77]" metric_name="binding result" value=binds
binder="GCNIMLPFWGCGRDFECLAGCVCQYYQSCGWPH (designed binder) [9.54.90-3x13]" metric_name="binding result" value=binds
binder="GCNIMLPFWGCKQDSDCLAGCVCQYYQSCGEN (designed binder) [9.54-24]" metric_name="binding result" value=binds
binder="GCDVMQPYWGCEMDFDCLAGCICHWYNSCGAS (designed binder) [9.63-23]" metric_name="binding result" value=binds
binder="GCNIMLPFWGCGRDFECLAGCVCQYYQSCGTR (designed binder) [9.54.90-2x36]" metric_name="binding result" value=binds

Lab note: next binder to report on.
Request: Name the reported binding result value associated with the binder GCDVMQPYWGCEMDFDCLAGCVCHWYNSCGND (designed binder) [9.63-77]
Result: binds
